- method.notes: self-splicing fitness, log relative to wild type (ln ratio); higher = more splicing; Tetrahymena group I intron in knt gene, E. coli kanamycin selection, DiMSum; sequences stand for … in CUCUCU…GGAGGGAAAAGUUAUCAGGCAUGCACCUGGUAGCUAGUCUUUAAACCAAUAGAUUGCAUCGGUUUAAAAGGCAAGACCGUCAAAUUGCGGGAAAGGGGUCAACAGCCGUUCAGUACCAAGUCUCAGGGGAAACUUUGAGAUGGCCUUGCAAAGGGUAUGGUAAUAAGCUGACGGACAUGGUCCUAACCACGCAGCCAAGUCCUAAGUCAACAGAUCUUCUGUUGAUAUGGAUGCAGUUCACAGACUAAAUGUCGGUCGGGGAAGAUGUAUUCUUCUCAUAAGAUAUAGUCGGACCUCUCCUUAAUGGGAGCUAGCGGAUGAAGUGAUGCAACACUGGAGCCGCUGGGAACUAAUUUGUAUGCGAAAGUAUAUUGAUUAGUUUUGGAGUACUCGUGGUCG;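 also: selection with 25 µg/mL kanamycin versus none on LB agar overnight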
- condition.summary: 30 °C
property.label: self-splicing fitness (ln)
A bare number is all that is needed in reply.

Let me know recorded self-splicing fitness (ln) for UAGCAGCAAUAUUACGUCCU , thanks.
-1.1

Given AUCGAGCAAUAUUACGGAUA , respond with its self-splicing fitness (ln).
-3.67

Read off the recorded self-splicing fitness (ln) for CUACAGCAAUAUUACGUCUG
-1.77

Indicate the recorded self-splicing fitness (ln) value for this sequence: GGGAAGCAAUAUUACGACUC
-1.17

Answer with the recorded self-splicing fitness (ln) for the sequence listed here: AUCGAGCAAUAUUACGUGCU
-2.72

Item CUACAGCAAUAUUACGCGGC : provide self-splicing fitness (ln)
-2.27

# return recorded self-splicing fitness (ln) for input UGAUAGCAAUAUUACGCGCU
-0.577

Please give measured self-splicing fitness (ln) of the following entry: AUGGAGCAAUAUUACGCCAG
-2.26

Item UUUAAGCAAUAUUACGCCUG : provide self-splicing fitness (ln)
-0.642

Give the reported value of self-splicing fitness (ln) for this record: GAAGAGCAAUAUUACGUAAU
-3.03

Kindly indicate its recorded self-splicing fitness (ln). Item: CUGAAGCAAUAUUACGUGGA
-4.08

Specify self-splicing fitness (ln) for ACCUAGCAAUAUUACGUGUA and stop.
-2.84

Quickly give me recorded self-splicing fitness (ln) for UUGCAGCAAUAUUACGCACA
-0.577

Using the record for GUACAGCAAUAUUACGUCGU , state its measured self-splicing fitness (ln).
-1.34

Item AUUCAGCAAUAUUACGUUCG : provide self-splicing fitness (ln)
-0.646

Look up and report measured self-splicing fitness (ln) for this entry: CCGCAGCAAUAUUACGUGUA
-3.25

// Input: CUACAGCAAUAUUACGUACA . Output its self-splicing fitness (ln) only.
-1.78

Give the value of self-splicing fitness (ln) reported for the following: AUGCAGCAAUAUUACGGAAU
-2.37

Give reported self-splicing fitness (ln) value for AAGUAGCAAUAUUACGUGAG
-1.57

Input AGUAAGCAAUAUUACGUGAA , output reported self-splicing fitness (ln).
-3.24

Report measured self-splicing fitness (ln); entry is AAUAAGCAAUAUUACGAAGU
-3.44

Annotate the sequence ACCAAGCAAUAUUACGUAUC with its measured self-splicing fitness (ln).
-3.4

Answer with the recorded self-splicing fitness (ln) for the sequence listed here: CUUCAGCAAUAUUACGGCAU
-2.78

Please give measured self-splicing fitness (ln) of the following entry: GUAAAGCAAUAUUACGAGAG
-3.16

Supply measured self-splicing fitness (ln) of UUACAGCAAUAUUACGUUCA in your reply.
-0.535

Recall and state the measured self-splicing fitness (ln) for CCUUAGCAAUAUUACGGAUA .
-2.98

Kindly indicate its recorded self-splicing fitness (ln). Item: GCGCAGCAAUAUUACGGUAG
-3.4

Fill in self-splicing fitness (ln) for record AACUAGCAAUAUUACGCUGA
-2.18

For GCAUAGCAAUAUUACGAGCG , write its self-splicing fitness (ln).
-1.3

Retrieve self-splicing fitness (ln) measured for CACGAGCAAUAUUACGUGCA and print it.
-3.55

Answer with the recorded self-splicing fitness (ln) for the sequence listed here: UAAUAGCAAUAUUACGUCUC
-3.41

Please give measured self-splicing fitness (ln) of the following entry: GGUCAGCAAUAUUACGCGCA
-0.219

Fill in reported self-splicing fitness (ln) for this entry: ACCCAGCAAUAUUACGCCAC
-4.62

Quickly give me recorded self-splicing fitness (ln) for ACAGAGCAAUAUUACGGCGG
-3.41

Give the reported value of self-splicing fitness (ln) for this record: AGAUAGCAAUAUUACGCUAC
-2.97

Output self-splicing fitness (ln) of CCGAAGCAAUAUUACGAGGU
-3.79

Respond only with self-splicing fitness (ln) recorded for CACAAGCAAUAUUACGAGUA
-1.9

Tell me its self-splicing fitness (ln) given ACGUAGCAAUAUUACGCUCA as the entry.
-0.72

Indicate the recorded self-splicing fitness (ln) value for this sequence: UGCCAGCAAUAUUACGUGGU
-3.85

Note down self-splicing fitness (ln) recorded for GGCAAGCAAUAUUACGUUCU
-0.68

Tell me measured self-splicing fitness (ln) for AAGUAGCAAUAUUACGGUUG please.
-2.78

Read off the recorded self-splicing fitness (ln) for AGAAAGCAAUAUUACGCCCC
-0.22

Complete the entry with self-splicing fitness (ln) for CAAAAGCAAUAUUACGAUCG
0.0933

Retrieve self-splicing fitness (ln) measured for UGUUAGCAAUAUUACGCGAU and print it.
-3.44

Look up and state reported self-splicing fitness (ln) for GCGCAGCAAUAUUACGGACG
-2.17

Let me know recorded self-splicing fitness (ln) for GUUAAGCAAUAUUACGCAAU , thanks.
-3.09

Consider the sequence AGCCAGCAAUAUUACGUCUC and give its recorded self-splicing fitness (ln).
-3.95

Name the recorded self-splicing fitness (ln) of the sequence listed here: CAUGAGCAAUAUUACGGUCC
-3.81

State, in one line, measured self-splicing fitness (ln) of GCUUAGCAAUAUUACGGACC
-1.17
